# Assay summary: Photostability test (6 months under direct sunlight, HPLC content)
# Format: physicochemical
# Condition label: storage period 6 months; transparent sealed container, nitrogen, direct sunlight, room temperature
Assay readout: Residual rate of quinolinone derivative (%)
Provide the reading as a plain figure in %.

Item under review: CCCCCCCCOc1c(O)c2ccc(NC(=O)/C=C/c3cc(OC)c(O)c(OC)c3)cc2n(C)c1=O [α-form crystals] . Reported Residual rate of quinolinone derivative? 85.1

Item under review: CCCCCCCCOc1c(O)c2ccc(NC(=O)/C=C/c3cc(OC)c(O)c(OC)c3)cc2n(C)c1=O [β-form crystals] . Reported Residual rate of quinolinone derivative? 84.5

Item under review: CCCCCCCCOc1c(O)c2ccc(NC(=O)/C=C/c3cc(OC)c(O)c(OC)c3)cc2n(C)c1=O [γ-form crystals] . Reported Residual rate of quinolinone derivative? 84.1

Item under review: CCCCCCCCOc1c(O)c2ccc(NC(=O)/C=C/c3cc(OC)c(O)c(OC)c3)cc2n(C)c1=O [δ-form crystals] . Reported Residual rate of quinolinone derivative? 57.3

* * *

Field: Residual rate of quinolinone derivative. Provide a value for each of the compounds that follow.
# Assay summary: Photostability test (6 months under direct sunlight, HPLC content)
# Format: physicochemical
# Condition label: storage period 15 days; transparent sealed container, nitrogen, direct sunlight, room temperature
Provide the reading as a plain figure in %.

Item under review: CCCCCCCCOc1c(O)c2ccc(NC(=O)/C=C/c3cc(OC)c(O)c(OC)c3)cc2n(C)c1=O [β-form crystals] . Reported Residual rate of quinolinone derivative? 98.7

Item under review: CCCCCCCCOc1c(O)c2ccc(NC(=O)/C=C/c3cc(OC)c(O)c(OC)c3)cc2n(C)c1=O [α-form crystals] . Reported Residual rate of quinolinone derivative? 99.1

Item under review: CCCCCCCCOc1c(O)c2ccc(NC(=O)/C=C/c3cc(OC)c(O)c(OC)c3)cc2n(C)c1=O [γ-form crystals] . Reported Residual rate of quinolinone derivative? 98.9

Item under review: CCCCCCCCOc1c(O)c2ccc(NC(=O)/C=C/c3cc(OC)c(O)c(OC)c3)cc2n(C)c1=O [δ-form crystals] . Reported Residual rate of quinolinone derivative? 96.2

* * *

# Assay summary: Absorption test in rats (plasma concentration after oral administration)
# Type: in vivo, male SD rats
# Condition label: 100 mg/kg single oral administration by gastric tube, suspended in 0.5% aqueous methyl cellulose, fasted male SD rats, plasma by HPLC
Assay readout: Cmax (maximum plasma concentration) (µg/mL)
Provide the reading as a plain figure in µg/mL.

Item under review: CCCCCCCCOc1c(O)c2ccc(NC(=O)/C=C/c3cc(OC)c(O)c(OC)c3)cc2n(C)c1=O [Crushed α-form crystals] . Reported Cmax (maximum plasma concentration)? 33

Item under review: CCCCCCCCOc1c(O)c2ccc(NC(=O)/C=C/c3cc(OC)c(O)c(OC)c3)cc2n(C)c1=O [Crushed β-form crystals] . Reported Cmax (maximum plasma concentration)? 67

Item under review: CCCCCCCCOc1c(O)c2ccc(NC(=O)/C=C/c3cc(OC)c(O)c(OC)c3)cc2n(C)c1=O [δ-form crystals] . Reported Cmax (maximum plasma concentration)? 51

Item under review: CCCCCCCCOc1c(O)c2ccc(NC(=O)/C=C/c3cc(OC)c(O)c(OC)c3)cc2n(C)c1=O [Crushed δ-form crystals] . Reported Cmax (maximum plasma concentration)? 63

Item under review: CCCCCCCCOc1c(O)c2ccc(NC(=O)/C=C/c3cc(OC)c(O)c(OC)c3)cc2n(C)c1=O [β-form crystals] . Reported Cmax (maximum plasma concentration)? 41

Item under review: CCCCCCCCOc1c(O)c2ccc(NC(=O)/C=C/c3cc(OC)c(O)c(OC)c3)cc2n(C)c1=O [α-form crystals] . Reported Cmax (maximum plasma concentration)? 10

Item under review: CCCCCCCCOc1c(O)c2ccc(NC(=O)/C=C/c3cc(OC)c(O)c(OC)c3)cc2n(C)c1=O [Crushed γ-form crystals] . Reported Cmax (maximum plasma concentration)? 65

Item under review: CCCCCCCCOc1c(O)c2ccc(NC(=O)/C=C/c3cc(OC)c(O)c(OC)c3)cc2n(C)c1=O [γ-form crystals] . Reported Cmax (maximum plasma concentration)? 38

* * *

# Assay summary: Photostability test (6 months under direct sunlight, HPLC content)
# Type: physicochemical
# Condition label: storage period 1 month; transparent sealed container, nitrogen, direct sunlight, room temperature
Field: Residual rate of quinolinone derivative. Provide a value for each of the compounds that follow.
Provide the reading as a plain figure in %.

Item under review: CCCCCCCCOc1c(O)c2ccc(NC(=O)/C=C/c3cc(OC)c(O)c(OC)c3)cc2n(C)c1=O [α-form crystals] . Reported Residual rate of quinolinone derivative? 97.2

Item under review: CCCCCCCCOc1c(O)c2ccc(NC(=O)/C=C/c3cc(OC)c(O)c(OC)c3)cc2n(C)c1=O [δ-form crystals] . Reported Residual rate of quinolinone derivative? 91.4

Item under review: CCCCCCCCOc1c(O)c2ccc(NC(=O)/C=C/c3cc(OC)c(O)c(OC)c3)cc2n(C)c1=O [β-form crystals] . Reported Residual rate of quinolinone derivative? 96.8

Item under review: CCCCCCCCOc1c(O)c2ccc(NC(=O)/C=C/c3cc(OC)c(O)c(OC)c3)cc2n(C)c1=O [γ-form crystals] . Reported Residual rate of quinolinone derivative? 96.5

* * *

# Assay summary: Photostability test (6 months under direct sunlight, HPLC content)
# Assay type: physicochemical
# Condition label: 6 months direct sunlight, room temperature
Assay readout: stability with respect to light compared among crystal forms

- Compound: "CCCCCCCCOc1c(O)c2ccc(NC(=O)/C=C/c3cc(OC)c(O)c(OC)c3)cc2n(C)c1=O [γ-form crystals]"
  Experimental value: "relatively stable"
- Compound: "CCCCCCCCOc1c(O)c2ccc(NC(=O)/C=C/c3cc(OC)c(O)c(OC)c3)cc2n(C)c1=O [α-form crystals]"
  Experimental value: "relatively stable"
- Compound: "CCCCCCCCOc1c(O)c2ccc(NC(=O)/C=C/c3cc(OC)c(O)c(OC)c3)cc2n(C)c1=O [β-form crystals]"
  Experimental value: "relatively stable"

* * *

# Assay summary: Absorption test in rats (plasma concentration after oral administration)
# Type: in vivo, male SD rats
# Condition label: 100 mg/kg single oral administration, fasted male SD rats; trapezoidal equation plus elimination rate constant
Assay readout: AUC (area under the plasma concentration vs. time curve)
Your answer should be a number followed by the unit of measure.

Item under review: CCCCCCCCOc1c(O)c2ccc(NC(=O)/C=C/c3cc(OC)c(O)c(OC)c3)cc2n(C)c1=O [Crushed γ-form crystals] . Reported AUC (area under the plasma concentration vs. time curve)? 575 µg·h/mL

Item under review: CCCCCCCCOc1c(O)c2ccc(NC(=O)/C=C/c3cc(OC)c(O)c(OC)c3)cc2n(C)c1=O [Crushed δ-form crystals] . Reported AUC (area under the plasma concentration vs. time curve)? 597 µg·h/mL

Item under review: CCCCCCCCOc1c(O)c2ccc(NC(=O)/C=C/c3cc(OC)c(O)c(OC)c3)cc2n(C)c1=O [γ-form crystals] . Reported AUC (area under the plasma concentration vs. time curve)? 325 µg·h/mL

Item under review: CCCCCCCCOc1c(O)c2ccc(NC(=O)/C=C/c3cc(OC)c(O)c(OC)c3)cc2n(C)c1=O [δ-form crystals] . Reported AUC (area under the plasma concentration vs. time curve)? 512 µg·h/mL

Item under review: CCCCCCCCOc1c(O)c2ccc(NC(=O)/C=C/c3cc(OC)c(O)c(OC)c3)cc2n(C)c1=O [Crushed α-form crystals] . Reported AUC (area under the plasma concentration vs. time curve)? 253 µg·h/mL

Item under review: CCCCCCCCOc1c(O)c2ccc(NC(=O)/C=C/c3cc(OC)c(O)c(OC)c3)cc2n(C)c1=O [Crushed β-form crystals] . Reported AUC (area under the plasma concentration vs. time curve)? 586 µg·h/mL

Item under review: CCCCCCCCOc1c(O)c2ccc(NC(=O)/C=C/c3cc(OC)c(O)c(OC)c3)cc2n(C)c1=O [β-form crystals] . Reported AUC (area under the plasma concentration vs. time curve)? 375 µg·h/mL

Item under review: CCCCCCCCOc1c(O)c2ccc(NC(=O)/C=C/c3cc(OC)c(O)c(OC)c3)cc2n(C)c1=O [α-form crystals] . Reported AUC (area under the plasma concentration vs. time curve)? 73 µg·h/mL
